# study.system: human Claudin-6 (CLDN6) (human) (UniProt P56747)
# assay.method.text: FACS, limiting dilution, OV90 cells
measured.parameter: FACS signal at 1.6 nM
Note: the reply should be a number with no unit written.

>  <binder>
AB S12 (antibody, V domains shown) VH: QVQLVQSGAEVKKPGASVKMSCKASGYTFTTYTMHWVRQAPGQGLEWIGFINPSSGYTEYAQKFQGRVTLTADKSTSTVYMELSSLRSEDTAVYFCANGDYYVGYWGQGTLVTVSS VL: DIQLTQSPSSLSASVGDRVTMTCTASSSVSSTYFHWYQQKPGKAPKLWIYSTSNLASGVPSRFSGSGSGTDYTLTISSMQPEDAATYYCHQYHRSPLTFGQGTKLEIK

>  <measured>
1260

$$$$

Q: Requested read-out: FACS signal at 1.6 nM. Entry: AB S8 (antibody, V domains shown) VH: QVQLVQSGAEVKKPGASVKMSCKASGYTFTTYTMHWVRQAPGQGLEWIGVINPSSGYTEYAQKFQGRVTLTADKSTSTVYMELSSLRSEDTAVYFCANGDYYVGYWGQGTLVTVSS VL: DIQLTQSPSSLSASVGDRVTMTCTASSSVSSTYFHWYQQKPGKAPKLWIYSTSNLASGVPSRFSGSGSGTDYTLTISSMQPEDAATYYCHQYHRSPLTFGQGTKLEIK
Result: 6410

Q: Requested read-out: FACS signal at 1.6 nM. Entry: AB S11 (antibody, V domains shown) VH: QVQLVQSGAEVKKPGASVKMSCKASGYTFTTYTIHWVRQAPGQGLEWIGVINPSSGYTEYAQKFQGRVTLTADKSTSTVYMELSSLRSEDTAVYFCANGDYYVAYWGQGTLVTVSS VL: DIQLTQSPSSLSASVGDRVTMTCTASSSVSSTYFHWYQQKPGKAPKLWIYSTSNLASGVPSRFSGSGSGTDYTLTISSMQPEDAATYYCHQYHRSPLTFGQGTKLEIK
Result: 4950
